- protocol-details: qHTS assay to identify small molecule antagonists of the sonic hedgehog signaling (Shh) pathway (AID 1259369); also: nearly all actives have a fitted effect of over 45% in size
- test-context: NIH/3T3 Gli1-Luc reporter, Shh antagonist, luminescence 24 h; series mostly up to 92.4 µM
Records with an inconclusive call do not appear. Active and inactive are the calls of the source. Calls follow the shape of the full dose curve.
Choose one outcome from this list and give only that: T = active, F = inactive

Please review the following examples before continuing.
molecule	qualitative-label
Cc1ccco1	F
O=C1c2ccccc2C(=O)C1c1nc2ccccc2c(Br)c1O	F
O=C1CCCCCCCCCCOCCCCO1	F
C[C@@H](O[C@H]1OCCN(Cc2n[nH]c(=O)[nH]2)[C@H]1c1ccc(F)cc1)c1cc(C(F)(F)F)cc(C(F)(F)F)c1	T
COc1cc(N)c(Cl)cc1C(=O)NC1CCN(CCCOc2ccc(F)cc2)CC1OC (stereo unspecified)	T

Lookup: What classification did Nc1nnc(-c2ccc([N+](=O)[O-])o2)o1 end up with in this test?
Found: F

Lookup: Entry CCC(OCCCOC)OC(C)=O (stereo unspecified) : call = ?
Found: F

Lookup: What did this assay record as the result for CC(=O)c1cc2ccccc2s1 ?
Found: F

Lookup: Write down the call the test reported for this molecule. Item: CC(=O)OCC(=O)NCCCOc1cccc(CN2CCCCC2)c1
Found: F

Lookup: Which outcome was assigned to CCCCCC#CC(=O)OC in this test?
Found: F

Lookup: Called result for COc1ccccc1NC(=O)c1cc2ccccc2cc1O
Found: T

Lookup: Could you kindly confirm the outcome this assay logged for Brc1cc(Br)c(Oc2cc(Br)c(Br)cc2Br)cc1Br ?
Found: F

Lookup: Record lookup: outcome of this test for C=CC(=O)OCC1CC2CC1C1CCC(COC(=O)C=C)C21 (stereo unspecified) ?
Found: T

Lookup: Outcome? CCOc1cccc(-n2cc(C(=O)N3CCN(c4cc(C(=O)O)c5ccccc5c4)CC3)nc2-c2ccc(C)cc2)c1
Found: F

* * *

- protocol-details: qHTS assay to test for compound auto fluorescence at 460 nm (blue) in HEK293 cells (AID 720678); also: % is scaled to controls: 0 for no effect and ±100 for the full control effect
- test-context: blue autofluorescence 405/460 nm; series mostly up to 91.3 µM
Calls of active or inactive are those of the source. The call rests on the fitted dose curve; in most records, active means well fitted curve in the direction sought with a large enough effect in the repeat runs; inconclusive means weak or mixed curves; inactive means flat fitted curve, though single readings scatter.
metric-name: fluorescence, % of triamterene

> print(dat)
                    structure.smiles.string                     metric.name                    test.result
1                            N#CCCN(CCO)CCO  fluorescence, % of triamterene                       inactive
2  C=C1c2cccc(O)c2C(O)=C2C(=O)[C@]3(O)C(O)=C(C(N)=O)C(=O)[C@@H](N(C)C)[C@@H]3[C@@H](O)[C@H]12  fluorescence, % of triamterene  1.67% [at 18.6 µM] (inactive)
3                             Cc1cccc(O)c1N  fluorescence, % of triamterene                       inactive

* * *

- protocol-details: qHTS assay to identify aromatase inhibitors - cell viability counter screen (AID 743084);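 also: cells stimulated with testosterone during compound exposure; nearly all actives have a fitted effect of over 55% in size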
- test-context: MCF-7 aro ERE viability, CellTiter-Fluor, 24 h; series mostly up to 70.3 µM
Results filed as inconclusive are left out. Active and inactive are the calls of the source. The call rests on the fitted dose curve; in most records, active means well fitted cell-killing curve with a large enough effect in the repeat runs; inconclusive means weak or mixed curves, or effect the other way; inactive means no such curve, though single readings can be large or run the other way.
Field 'call' accepts active, inactive

> print(dat)
                                   compound  qualitative.label
1  O=[N+]([O-])c1cc(C2CCCCC2)c(O)c([N+](=O)[O-])c1             active
2                        N#CCc1ccc(Cl)cc1Cl           inactive

Lookup: Answer briefly: the call reported for CC(C)Nc1cccnc1N1CCN(C(=O)c2cc3cc(NS(C)(=O)=O)ccc3[nH]2)CC1 in this assay.
Found: inactive

Lookup: I would be grateful if you could indicate the recorded call for C/C=C/C=C/C=O .
Found: inactive

Lookup: Call for entry COc1cc(N)c(Cl)cc1C(=O)NC1CCN(CCCOc2ccc(F)cc2)CC1OC (centres undefined) :
Found: inactive

Lookup: Please state the recorded outcome for this compound: C=C1CCC2CC1C2(C)C (centres undefined)
Found: inactive

Lookup: Kindly provide the recorded test outcome for the following compound: CC1=C(Br)C(=O)C(Br)=C/C1=C(/c1ccccc1S(=O)(=O)O)c1cc(Br)c(O)c(Br)c1C
Found: active

Lookup: Recorded test call requested for O=C(O)CCCCCCCCCCCBr
Found: inactive
